The origin of these recorded values is patent US12391670B2.

# targetDesc: A2B receptors endogenously expressed in HEK293 cells (Homo sapiens (Human))
# Sequence (P29275 whole entry): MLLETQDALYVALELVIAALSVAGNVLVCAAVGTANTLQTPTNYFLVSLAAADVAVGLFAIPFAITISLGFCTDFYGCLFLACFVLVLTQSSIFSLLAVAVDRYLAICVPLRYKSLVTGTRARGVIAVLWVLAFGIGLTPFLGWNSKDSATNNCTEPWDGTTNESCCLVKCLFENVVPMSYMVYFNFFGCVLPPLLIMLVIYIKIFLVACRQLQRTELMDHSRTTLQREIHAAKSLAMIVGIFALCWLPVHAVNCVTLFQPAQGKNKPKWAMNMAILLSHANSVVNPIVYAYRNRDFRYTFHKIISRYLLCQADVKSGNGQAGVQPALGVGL
# protocolDetails: cAMP assay (a), HEK293 cells with A2B receptors endogenously expressed
# Type: cell-based
# experimentalSetup: stimulated with 5 μM NECA, read-out: cAMP pIC50 (converted)
assayReadout: IC50 (nM)

A. Fc1cnccc1-c1nnc(Nc2cccnc2)nc1-c1cccnc1
B. Fc1cccc(Nc2nnc(-c3ccncc3F)c(-c3cccnc3)n2)c1
C. Fc1cnccc1-c1nnc(Nc2nccs2)nc1-c1cccnc1
D. CNC(=O)Nc1nnc(-c2ccncc2F)c(-c2cccnc2)n1
E. Cc1nnc(Nc2nnc(-c3ccncc3F)c(-c3cccnc3)n2)s1
*Q* Could you list the above compounds by IC50, going from the biggest number down? Quick reminder: the answer is the labels in the order asked.
*A* D, E, C, B, A
(D: 6920 nM, E: 3980 nM, C: 2000 nM, B: 631 nM, A: 398 nM)

* * *

# targetDesc: human A2B receptor (Homo sapiens (Human))
# protocolDetails: Radioligand binding competition assay, [3H]-DPCPX, membranes from HEK293 cells transfected with human A2B receptor
assayReadout: Human A2B Receptor pKi

Fc1cnccc1-c1nnc(Nc2ccc(C(F)(F)F)nc2)nc1-c1ccccc1F
7.33
Cc1nsc(Nc2nnc(-c3ccncc3F)c(-c3ccccc3F)n2)n1
5.98
Fc1cccc(Nc2nnc(-c3ccncc3F)c(-c3ccccc3F)n2)c1
6.42
CNC(=O)Nc1nnc(-c2ccncc2F)c(-c2ccccc2F)n1
6.84
Fc1cnccc1-c1nnc(Nc2ccc(C3CC3)nc2)nc1-c1ccccc1F
7.58
Fc1cnccc1-c1nnc(Nc2cccnc2)nc1-c1cccnc1
6.55
CC(C)(O)c1ccc(Nc2nnc(-c3ccncc3F)c(-c3ccccc3F)n2)cn1
7.65
Cc1n[nH]c(Nc2nnc(-c3ccncc3F)c(-c3ccccc3F)n2)n1
6.82
OCc1ccc(Nc2nnc(-c3ccncc3F)c(-c3ccccc3F)n2)cn1
7.95
Fc1ccccc1-c1nc(Nc2nc(Cl)cs2)nnc1-c1ccnc(C(F)(F)F)c1
6.02

P. OCc1ccc(Nc2nnc(-c3ccncc3F)c(-c3ccccc3F)n2)cc1F
Q. Cc1nsc(Nc2nnc(-c3ccncc3F)c(-c3cccnc3)n2)n1
*Q* Just tell me: smaller Human A2B Receptor pKi value, P or Q ? I would appreciate it if you answered with the label of your choice.
*A* Q
(Q: 5.38, P: 7.84)

* * *

# targetDesc: human A2A receptor (Homo sapiens (Human), UniProt P29274)
# Sequence (P29274 whole entry): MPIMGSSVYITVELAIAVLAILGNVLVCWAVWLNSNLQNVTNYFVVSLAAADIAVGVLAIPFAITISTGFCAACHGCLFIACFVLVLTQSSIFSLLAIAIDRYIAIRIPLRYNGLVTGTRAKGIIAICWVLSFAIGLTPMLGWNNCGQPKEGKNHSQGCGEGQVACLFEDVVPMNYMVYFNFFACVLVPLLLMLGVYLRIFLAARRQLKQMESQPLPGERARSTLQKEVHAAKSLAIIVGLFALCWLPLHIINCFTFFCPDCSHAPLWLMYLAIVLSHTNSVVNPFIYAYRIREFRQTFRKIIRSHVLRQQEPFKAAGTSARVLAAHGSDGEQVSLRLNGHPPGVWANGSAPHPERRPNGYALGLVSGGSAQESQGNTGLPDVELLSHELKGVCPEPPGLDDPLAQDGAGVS
# protocolDetails: Radioligand binding competition assay, [3H]-NECA, membranes from HEK293 cells transfected with human A2A receptor
# experimentalSetup: radioligand binding
assayReadout: Human A2A Receptor pKi

Fc1cnccc1-c1nnc(Nc2ccc(C3CC3)nc2)nc1-c1ccccc1F
6.00
Fc1cccc(Nc2nnc(-c3ccncc3F)c(-c3ccccc3F)n2)c1
4.49
CC(C)(O)c1ccc(Nc2nnc(-c3ccncc3F)c(-c3ccccc3F)n2)cn1
5.84

* * *

# targetDesc: human A2B receptor (Homo sapiens (Human), UniProt P29275)
# protocolDetails: Radioligand binding competition assay, [3H]-DPCPX, membranes from HEK293 cells transfected with human A2B receptor
# Experimental: For all four adenosine receptors (A1, A2A, A2B and A3) filtration binding assay was performed. […] Nonspecific binding was determined by co-incubation with 200-fold excess of cold competitor. […] The plates are incubated 15 min at room temperature on an orbital shaker and then counted with a TopCount™ for 1 min/well. […]
assayReadout: Human A2B Receptor pKi

COc1ccc(NC(=O)Nc2nnc(-c3ccncc3F)c(-c3ccccc3F)n2)cc1
6.94
Cc1cnc(-c2nc(Nc3cccc(F)c3)nnc2-c2ccncc2F)o1
7.17
CC(C)(C)c1n[nH]c(Nc2nnc(-c3ccncc3F)c(-c3ccccc3F)n2)n1
7.01
Cc1cc(Nc2nnc(-c3ccncc3F)c(-c3ccccc3F)n2)[nH]n1
6.93
COc1ccc(Nc2nnc(-c3ccncc3F)c(-c3ccccc3F)n2)cn1
7.43

* * *

# targetDesc: UniProt:P29274
# protocolDetails: Radioligand binding competition assay, [3H]-NECA, membranes from HEK293 cells transfected with human A2A receptor
# experimentalSetup: radioligand binding
assayReadout: Human A2A Receptor pKi

Fc1cnccc1-c1nnc(Nc2nc(Cl)cs2)nc1-c1cccnc1
5.48
Cc1cnc(-c2nc(Nc3cccc(F)c3)nnc2-c2ccncc2F)o1
5.8
OCc1ccc(Nc2nnc(-c3ccncc3F)c(-c3ccccc3F)n2)cn1
4.7
Fc1cccc(Nc2nnc(-c3ccncc3F)c(-c3cccnc3)n2)c1
4.9
OCc1ccc(Nc2nnc(-c3ccncc3F)c(-c3ccccc3F)n2)cc1F
6.1
Cc1n[nH]c(Nc2nnc(-c3ccncc3F)c(-c3ccccc3F)n2)n1
4.4
OCc1ncc(Nc2nnc(-c3ccncc3F)c(-c3ccccc3F)n2)cn1
5.66
CC(O)c1ccc(Nc2nnc(-c3ccncc3F)c(-c3ccccc3F)n2)cn1 (stereo not shown)
6.25
Fc1cnccc1-c1nnc(Nc2cccnc2)nc1-c1cccnc1
4.73
Fc1cnccc1-c1nnc(Nc2ccc(OCC(F)F)nc2)nc1-c1ccccc1F
6.56
COc1ccc(Nc2nnc(-c3ccncc3F)c(-c3ccccc3F)n2)cn1
6.57
Cc1ccc(Nc2nnc(-c3ccncc3F)c(-c3ccccc3F)n2)cn1
6

* * *

# targetDesc: human A2B receptor (Homo sapiens (Human), UniProt P29275)
# protocolDetails: Radioligand binding competition assay, [3H]-DPCPX, membranes from HEK293 cells transfected with human A2B receptor
assayReadout: IC50 (µM)

Fc1cnccc1-c1nnc(Nc2nccs2)nc1-c1cccnc1
1.25
Fc1ccccc1-c1nc(Nc2nc(Cl)cs2)nnc1-c1ccnc(C(F)(F)F)c1
1.07
Cc1nsc(Nc2nnc(-c3ccncc3F)c(-c3ccccc3F)n2)n1
1.17

* * *

# targetDesc: human A2B receptor (Homo sapiens (Human), UniProt P29275)
# protocolDetails: Radioligand binding competition assay, [3H]-DPCPX, membranes from HEK293 cells transfected with human A2B receptor
# Protocol: For all four adenosine receptors (A1, A2A, A2B and A3) filtration binding assay was performed. […] Nonspecific binding was determined by co-incubation with 200-fold excess of cold competitor. […] The plates are incubated 15 min at room temperature on an orbital shaker and then counted with a TopCount™ for 1 min/well. […]
assayReadout: Human A2B Receptor pKi

O=C(Nc1nnc(-c2ccncc2F)c(-c2ccccc2F)n1)NC1CC1
6.55
Cc1ccc(Nc2nnc(-c3ccncc3F)c(-c3ccccc3F)n2)cn1
7.81
OCc1ncc(Nc2nnc(-c3ccncc3F)c(-c3ccccc3F)n2)cn1
7.76
